Biological target: C. elegans levamisole-sensitive AChR (Cel-L-AChR)
Sequence (Q27218 32-507): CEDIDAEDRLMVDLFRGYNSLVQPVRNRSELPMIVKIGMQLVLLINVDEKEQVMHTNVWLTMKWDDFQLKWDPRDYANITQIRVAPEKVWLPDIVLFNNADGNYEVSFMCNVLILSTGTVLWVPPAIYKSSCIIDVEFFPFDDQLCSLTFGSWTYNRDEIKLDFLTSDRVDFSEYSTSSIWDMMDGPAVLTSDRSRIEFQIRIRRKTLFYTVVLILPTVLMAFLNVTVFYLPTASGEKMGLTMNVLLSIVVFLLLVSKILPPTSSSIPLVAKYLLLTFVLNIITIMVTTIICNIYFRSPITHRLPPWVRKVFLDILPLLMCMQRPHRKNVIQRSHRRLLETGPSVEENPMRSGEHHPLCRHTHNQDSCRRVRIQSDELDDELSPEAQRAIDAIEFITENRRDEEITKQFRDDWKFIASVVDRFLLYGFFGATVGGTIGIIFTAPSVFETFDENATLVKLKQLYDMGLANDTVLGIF
Sequence (P48181 27-493, further chain): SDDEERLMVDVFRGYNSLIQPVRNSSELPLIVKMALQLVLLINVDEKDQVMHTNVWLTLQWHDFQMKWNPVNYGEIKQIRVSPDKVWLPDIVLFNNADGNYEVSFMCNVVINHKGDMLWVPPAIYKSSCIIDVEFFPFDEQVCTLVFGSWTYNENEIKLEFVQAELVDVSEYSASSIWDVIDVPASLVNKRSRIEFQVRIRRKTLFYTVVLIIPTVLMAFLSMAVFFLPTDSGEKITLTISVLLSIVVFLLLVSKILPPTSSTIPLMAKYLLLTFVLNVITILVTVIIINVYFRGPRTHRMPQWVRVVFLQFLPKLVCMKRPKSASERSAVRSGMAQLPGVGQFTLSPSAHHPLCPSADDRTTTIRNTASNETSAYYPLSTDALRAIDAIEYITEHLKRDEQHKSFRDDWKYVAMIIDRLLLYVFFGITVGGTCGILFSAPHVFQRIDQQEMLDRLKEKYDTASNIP
Sequence (Q23022 17-511, further chain): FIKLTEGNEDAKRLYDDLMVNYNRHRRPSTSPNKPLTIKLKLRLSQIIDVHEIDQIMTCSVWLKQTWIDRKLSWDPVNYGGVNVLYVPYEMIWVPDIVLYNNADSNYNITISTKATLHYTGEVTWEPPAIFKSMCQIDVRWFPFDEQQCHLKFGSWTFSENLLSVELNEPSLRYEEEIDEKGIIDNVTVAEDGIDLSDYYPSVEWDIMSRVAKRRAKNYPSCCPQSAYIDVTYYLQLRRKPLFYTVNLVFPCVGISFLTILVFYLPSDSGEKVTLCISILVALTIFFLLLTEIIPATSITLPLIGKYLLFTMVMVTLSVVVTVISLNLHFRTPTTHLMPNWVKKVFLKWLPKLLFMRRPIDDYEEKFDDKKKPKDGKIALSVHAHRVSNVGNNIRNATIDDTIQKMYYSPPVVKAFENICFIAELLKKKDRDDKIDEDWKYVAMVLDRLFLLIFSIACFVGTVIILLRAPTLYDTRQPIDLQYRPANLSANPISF
Sequence (Q9N587 24-502, further chain): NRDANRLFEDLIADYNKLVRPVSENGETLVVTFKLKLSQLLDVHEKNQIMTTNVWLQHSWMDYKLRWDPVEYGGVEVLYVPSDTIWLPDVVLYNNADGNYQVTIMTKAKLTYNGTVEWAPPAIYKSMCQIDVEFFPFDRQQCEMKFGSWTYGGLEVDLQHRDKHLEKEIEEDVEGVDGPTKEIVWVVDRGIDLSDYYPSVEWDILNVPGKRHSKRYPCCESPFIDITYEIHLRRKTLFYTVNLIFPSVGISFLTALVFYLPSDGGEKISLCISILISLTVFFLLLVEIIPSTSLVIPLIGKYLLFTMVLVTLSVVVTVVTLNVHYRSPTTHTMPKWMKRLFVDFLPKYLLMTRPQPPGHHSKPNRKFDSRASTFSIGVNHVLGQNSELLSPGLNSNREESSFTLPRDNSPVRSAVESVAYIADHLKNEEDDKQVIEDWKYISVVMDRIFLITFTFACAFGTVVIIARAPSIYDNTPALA
Sequence (Q93329 entry or part of it, further chain): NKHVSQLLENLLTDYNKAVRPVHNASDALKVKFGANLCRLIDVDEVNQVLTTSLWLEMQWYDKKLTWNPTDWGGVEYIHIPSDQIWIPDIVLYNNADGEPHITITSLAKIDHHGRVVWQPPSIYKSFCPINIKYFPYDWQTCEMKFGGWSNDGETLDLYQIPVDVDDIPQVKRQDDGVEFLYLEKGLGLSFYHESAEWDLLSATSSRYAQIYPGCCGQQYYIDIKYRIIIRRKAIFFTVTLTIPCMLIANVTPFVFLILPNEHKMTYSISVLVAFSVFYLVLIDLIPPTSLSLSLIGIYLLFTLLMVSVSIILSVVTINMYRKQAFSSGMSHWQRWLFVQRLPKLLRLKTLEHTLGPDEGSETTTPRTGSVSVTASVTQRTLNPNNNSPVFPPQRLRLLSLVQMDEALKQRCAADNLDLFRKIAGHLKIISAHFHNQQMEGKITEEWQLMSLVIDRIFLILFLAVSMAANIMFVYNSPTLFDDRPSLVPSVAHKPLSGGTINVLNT
Experiment: Xenopus laevis oocyte two-electrode voltage-clamp, Cel-L-AChR
Settings: read-out: IC50 on ACh-elicited currents; Cel-L-AChR; n = 5
measurementLabel: IC50 (µM)

> print(dat)
                                  molsmiles                               studysystem  resultunit  obsvalue
1  O=C1CCC[C@@H]2[C@H]3C[C@@H](CN12)[C@@H]1CCCCN1C3  C. elegans levamisole-sensitive AChR (Cel-L-AChR)          µM       549

###

System: drug-susceptible Haemonchus contortus infective larvae
Test: Larval migration inhibition assay (LMIA), fully susceptible isolate
Type: cell-based
Conditions: Haemonchus contortus; concentration response assay, susceptible H. contortus isolate
measurementLabel: IC50 (µM)

> print(dat)
                                   compound  obsvalue
1  c1ccc([C@H]2CN3CCSC3=N2)cc1 [levamisole]      1.61

###

Molecular target: C. elegans nicotine-sensitive AChR (Cel-N-AChR, acr-16) (Caenorhabditis elegans, UniProt P48180)
Sequence (P48180 20-498): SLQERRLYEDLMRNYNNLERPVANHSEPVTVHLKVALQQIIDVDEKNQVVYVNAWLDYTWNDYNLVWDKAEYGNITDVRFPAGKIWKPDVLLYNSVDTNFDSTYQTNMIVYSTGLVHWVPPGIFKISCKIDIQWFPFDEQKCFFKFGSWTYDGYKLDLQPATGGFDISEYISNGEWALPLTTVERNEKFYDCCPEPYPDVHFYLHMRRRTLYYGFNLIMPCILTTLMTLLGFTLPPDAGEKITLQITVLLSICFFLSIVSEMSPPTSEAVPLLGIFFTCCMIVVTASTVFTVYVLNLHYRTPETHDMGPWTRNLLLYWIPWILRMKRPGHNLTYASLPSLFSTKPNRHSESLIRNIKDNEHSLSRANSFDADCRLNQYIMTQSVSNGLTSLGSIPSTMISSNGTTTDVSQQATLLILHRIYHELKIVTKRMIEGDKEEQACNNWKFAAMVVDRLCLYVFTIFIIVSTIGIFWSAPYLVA
Test: Xenopus laevis oocyte two-electrode voltage-clamp, Cel-N-AChR
Assay type: cell-based
Settings: EC50, acetylcholine alone
From the text: The lupanine and alkaloid extracts from lupin seeds were perfused on defolliculated X. laevis oocytes (Ecocyte Bioscience, Dortmund, Germany) expressing either the C. elegans nicotine-sensitive nAChR subtype (Cel-N-nAChR, encoded by acr-16[53]), or its levamisole-sensitive counterpart (Cel-L-nAChR, encoded by unc-38, unc-63, unc-29, lev-1 and lev-8[53]). […]
measurementLabel: EC50 (µM)

> print(dat)
              molsmiles  measurementlabel  resultunit  obsvalue
1  CC(=O)OCC[N+](C)(C)C              EC50          µM      21.7

###

Biological target: H. contortus levamisole-sensitive AChR (Hco-L-AChR-1) (Haemonchus contortus, UniProt A9XX24+D6MYE9+D6MYF3+D6MYF4)
Sequence (D6MYE9 entry or part of it): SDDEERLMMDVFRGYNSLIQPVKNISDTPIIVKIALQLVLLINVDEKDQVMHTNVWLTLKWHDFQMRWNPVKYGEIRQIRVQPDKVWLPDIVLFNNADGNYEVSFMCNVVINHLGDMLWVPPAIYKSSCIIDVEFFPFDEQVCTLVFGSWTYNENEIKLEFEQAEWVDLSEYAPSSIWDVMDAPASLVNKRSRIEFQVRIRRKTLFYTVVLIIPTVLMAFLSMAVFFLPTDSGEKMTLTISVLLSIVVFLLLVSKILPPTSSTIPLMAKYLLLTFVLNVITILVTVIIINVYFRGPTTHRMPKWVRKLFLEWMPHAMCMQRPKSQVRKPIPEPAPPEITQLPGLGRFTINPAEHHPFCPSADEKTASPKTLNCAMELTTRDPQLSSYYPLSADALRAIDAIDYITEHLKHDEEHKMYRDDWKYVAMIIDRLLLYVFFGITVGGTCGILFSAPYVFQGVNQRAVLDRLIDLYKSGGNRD
Sequence (D6MYF4 entry or part of it): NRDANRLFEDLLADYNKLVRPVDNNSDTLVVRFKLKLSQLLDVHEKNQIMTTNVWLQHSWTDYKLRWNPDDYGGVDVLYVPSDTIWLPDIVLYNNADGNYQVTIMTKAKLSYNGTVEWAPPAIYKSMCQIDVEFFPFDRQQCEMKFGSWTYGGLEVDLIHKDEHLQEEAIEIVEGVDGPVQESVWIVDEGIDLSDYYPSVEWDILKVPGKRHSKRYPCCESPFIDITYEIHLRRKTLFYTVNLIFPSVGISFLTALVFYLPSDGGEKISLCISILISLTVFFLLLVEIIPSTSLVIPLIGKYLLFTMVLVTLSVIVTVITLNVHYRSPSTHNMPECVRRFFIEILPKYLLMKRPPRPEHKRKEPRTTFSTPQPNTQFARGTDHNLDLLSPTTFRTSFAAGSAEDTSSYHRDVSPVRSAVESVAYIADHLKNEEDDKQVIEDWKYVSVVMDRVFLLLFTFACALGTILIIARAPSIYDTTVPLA
Sequence (A9XX24 entry or part of it): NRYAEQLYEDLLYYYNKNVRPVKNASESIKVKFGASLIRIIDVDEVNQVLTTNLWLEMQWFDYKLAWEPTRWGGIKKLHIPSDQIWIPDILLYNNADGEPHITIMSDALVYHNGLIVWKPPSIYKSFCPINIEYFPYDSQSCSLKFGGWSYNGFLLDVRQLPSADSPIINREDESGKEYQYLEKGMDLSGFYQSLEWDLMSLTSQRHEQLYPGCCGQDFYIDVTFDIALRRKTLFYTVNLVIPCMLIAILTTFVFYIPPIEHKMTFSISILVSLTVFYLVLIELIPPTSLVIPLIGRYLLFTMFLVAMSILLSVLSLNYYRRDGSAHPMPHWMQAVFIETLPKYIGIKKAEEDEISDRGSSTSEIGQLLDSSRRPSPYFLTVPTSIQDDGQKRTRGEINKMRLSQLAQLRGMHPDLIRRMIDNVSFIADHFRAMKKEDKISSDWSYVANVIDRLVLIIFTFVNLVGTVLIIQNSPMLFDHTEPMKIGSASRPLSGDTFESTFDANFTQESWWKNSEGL
Sequence (D6MYF3 entry or part of it): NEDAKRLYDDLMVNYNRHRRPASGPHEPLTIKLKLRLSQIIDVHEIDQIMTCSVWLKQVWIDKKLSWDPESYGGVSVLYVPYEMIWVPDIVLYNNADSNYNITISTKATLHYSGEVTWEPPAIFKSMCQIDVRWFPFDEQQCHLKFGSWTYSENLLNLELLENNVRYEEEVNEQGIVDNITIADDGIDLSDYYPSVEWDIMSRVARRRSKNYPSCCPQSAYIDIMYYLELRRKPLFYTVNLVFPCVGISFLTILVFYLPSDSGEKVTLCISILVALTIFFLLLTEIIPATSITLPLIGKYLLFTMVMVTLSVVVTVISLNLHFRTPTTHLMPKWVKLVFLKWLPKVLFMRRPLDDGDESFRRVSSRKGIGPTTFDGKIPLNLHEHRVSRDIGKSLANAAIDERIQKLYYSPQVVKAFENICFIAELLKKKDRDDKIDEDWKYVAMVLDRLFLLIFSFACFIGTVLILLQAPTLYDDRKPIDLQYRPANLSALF
Experiment: Xenopus laevis oocyte two-electrode voltage-clamp, Hco-L-AChR-1
Conditions: Hco-L-AChR-1; n = 5; read-out: IC50 on ACh-elicited currents
pIC50: −log10 of the molar value.
measurementLabel: pIC50

> print(dat)
                                   compound  obsvalue
1  O=C1CCC[C@@H]2[C@H]3C[C@@H](CN12)[C@@H]1CCCCN1C3 [lupanine]      3.27

Value source: paper PMC6588613
